Sourced from patent EP4180035A1

target.desc: β2 subunit of the yeast 20S proteasome (Saccharomyces cerevisiae)
Construct: purified yeast 20S proteasome core particle (yCP)
protocol.notes: IC50 determination with purified yeast 20S proteasome core particle (yCP), trypsin-like activity, fluorogenic AMC substrate
run.parameters: yCP 0.05 mg/mL, 100 mM Tris-HCl pH 7.5; 45 min incubation at room temperature; fluorogenic substrate 200 µM, trypsin-like (T-L); read-out: binding affinities for β2

# compound, IC50 [µM]
data = [
    ("CC(C)C1C(=O)OC1C(=O)O (stereo not shown)", 60),
]

###

target.desc: β5 subunit of the yeast 20S proteasome (Saccharomyces cerevisiae)
Construct: purified yeast 20S proteasome core particle (yCP)
protocol.notes: IC50 determination with purified yeast 20S proteasome core particle (yCP), chymotrypsin-like activity, fluorogenic AMC substrate
run.parameters: yCP 0.05 mg/mL, 100 mM Tris-HCl pH 7.5; 45 min incubation at room temperature; Suc-Leu-Leu-Val-Tyr-AMC 200 µM (ChT-L); triplicate

# compound, IC50 [µM]
data = [
    ("CC(C)C1C(=O)OC1C(=O)O (stereo not shown)", 6.2),
]
